- assay-system: Alpha-glucosidase (Saccharomyces cerevisiae S288c, UniProt P53341+P38158+P07265)
- assay-remarks: Inhibition of yeast alpha-glucosidase assessed as reduction of p-nitrophenol release using p-nitrophenyl glycoside as substrate by spectrophotometric analysis
- Type: protein assay
Assign IC50 to each entry below.
Response body: numeric value in µM, unit text excluded.

INPUT: Recall and state the measured IC50 for `Cl.OC[C@H]1N[C@H]([C@H](O)CCCCCCc2ccc(F)cc2)[C@@H](O)[C@@H]1O` .
OUTPUT: 83

INPUT: For `Cl.OC[C@H]1N[C@H](CCCCCCCc2ccc(Cl)cc2)[C@@H](O)[C@@H]1O` , write its IC50.
OUTPUT: 40

INPUT: Let me know recorded IC50 for `O=C1CCCC=C1CCCCCCC[C@H]1N[C@H](CO)[C@@H](O)[C@@H]1O` , thanks.
OUTPUT: 21.6

INPUT: Give the value of IC50 reported for the following: `Cl.OC[C@H]1N[C@H]([C@@H](O)CCCCCCc2ccc(Cl)cc2)[C@@H](O)[C@@H]1O`
OUTPUT: 59

INPUT: Given `OC[C@H]1N[C@H](CCCCCCCc2ccccc2)[C@@H](O)[C@@H]1O` , respond with its IC50.
OUTPUT: 33

INPUT: Please list IC50 recorded for the compound `Cl.OC[C@H]1N[C@H](CCCCCCCc2ccc(F)cc2)[C@@H](O)[C@@H]1O`
OUTPUT: 32.2

INPUT: Please give measured IC50 of the following entry: `Cl.OC[C@H]1N[C@H]([C@H](O)CCCCCCc2ccc(F)c(F)c2)[C@@H](O)[C@@H]1O`
OUTPUT: 87

INPUT: Could you please provide reported IC50 for `Cc1ccc(CCCCCCC[C@H]2N[C@H](CO)[C@@H](O)[C@@H]2O)cc1.Cl` ? Thanks!
OUTPUT: 92
